# assayed_system: T1, laminin-421 (human, UniProt Q16363 25-1823; P55268 33-1798; P11047 34-1609)
# T1 construct: Full-length recombinant human laminin isoform (BioLamina); chains read from the isoform name
# T1 sequence (Q16363 25-1823 limits assumed, chain 1 of 3): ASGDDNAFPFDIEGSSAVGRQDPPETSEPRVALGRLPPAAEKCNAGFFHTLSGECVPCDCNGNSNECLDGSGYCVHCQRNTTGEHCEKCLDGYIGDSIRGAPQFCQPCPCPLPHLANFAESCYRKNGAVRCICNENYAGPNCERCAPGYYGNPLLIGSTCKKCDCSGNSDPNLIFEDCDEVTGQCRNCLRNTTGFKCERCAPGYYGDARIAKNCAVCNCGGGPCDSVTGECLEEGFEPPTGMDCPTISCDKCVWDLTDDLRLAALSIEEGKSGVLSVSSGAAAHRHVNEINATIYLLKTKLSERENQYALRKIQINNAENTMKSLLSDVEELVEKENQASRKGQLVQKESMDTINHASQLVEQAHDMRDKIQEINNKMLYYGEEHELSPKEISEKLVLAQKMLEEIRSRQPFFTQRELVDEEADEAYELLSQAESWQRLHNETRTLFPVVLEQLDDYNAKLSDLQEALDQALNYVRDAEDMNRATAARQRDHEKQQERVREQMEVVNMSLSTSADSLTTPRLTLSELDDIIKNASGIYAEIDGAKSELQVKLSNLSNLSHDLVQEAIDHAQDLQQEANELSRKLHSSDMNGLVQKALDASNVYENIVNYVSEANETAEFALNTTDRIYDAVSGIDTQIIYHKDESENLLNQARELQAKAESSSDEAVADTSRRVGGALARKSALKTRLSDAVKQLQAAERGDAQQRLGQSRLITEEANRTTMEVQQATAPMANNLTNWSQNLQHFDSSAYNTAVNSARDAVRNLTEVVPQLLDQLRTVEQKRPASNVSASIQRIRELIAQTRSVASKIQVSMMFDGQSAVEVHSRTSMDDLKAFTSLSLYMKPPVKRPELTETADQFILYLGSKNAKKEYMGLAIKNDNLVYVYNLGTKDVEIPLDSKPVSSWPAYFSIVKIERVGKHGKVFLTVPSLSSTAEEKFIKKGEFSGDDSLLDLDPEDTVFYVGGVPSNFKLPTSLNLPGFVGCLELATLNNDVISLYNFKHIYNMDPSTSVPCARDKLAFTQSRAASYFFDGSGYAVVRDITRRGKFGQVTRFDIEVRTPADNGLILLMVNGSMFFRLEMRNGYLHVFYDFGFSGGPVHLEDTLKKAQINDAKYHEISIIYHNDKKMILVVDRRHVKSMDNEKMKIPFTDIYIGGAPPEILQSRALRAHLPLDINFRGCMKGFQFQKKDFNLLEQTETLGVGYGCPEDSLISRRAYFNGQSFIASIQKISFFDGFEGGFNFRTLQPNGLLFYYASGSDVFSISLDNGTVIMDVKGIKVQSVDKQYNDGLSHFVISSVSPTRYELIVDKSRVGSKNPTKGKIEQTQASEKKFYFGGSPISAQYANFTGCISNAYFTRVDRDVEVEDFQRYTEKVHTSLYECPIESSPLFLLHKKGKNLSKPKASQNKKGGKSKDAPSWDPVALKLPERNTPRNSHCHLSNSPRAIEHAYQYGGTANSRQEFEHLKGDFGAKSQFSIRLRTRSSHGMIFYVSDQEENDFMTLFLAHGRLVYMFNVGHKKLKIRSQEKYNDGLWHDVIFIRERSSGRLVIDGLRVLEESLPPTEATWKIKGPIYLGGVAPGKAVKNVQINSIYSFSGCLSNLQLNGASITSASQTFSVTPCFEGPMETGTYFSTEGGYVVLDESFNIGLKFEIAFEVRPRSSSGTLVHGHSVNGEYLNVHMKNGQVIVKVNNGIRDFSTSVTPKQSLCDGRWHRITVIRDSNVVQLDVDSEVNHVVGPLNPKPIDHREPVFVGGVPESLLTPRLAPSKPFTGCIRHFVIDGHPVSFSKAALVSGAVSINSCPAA
# T1 sequence (P55268 33-1798 limits assumed, chain 2 of 3): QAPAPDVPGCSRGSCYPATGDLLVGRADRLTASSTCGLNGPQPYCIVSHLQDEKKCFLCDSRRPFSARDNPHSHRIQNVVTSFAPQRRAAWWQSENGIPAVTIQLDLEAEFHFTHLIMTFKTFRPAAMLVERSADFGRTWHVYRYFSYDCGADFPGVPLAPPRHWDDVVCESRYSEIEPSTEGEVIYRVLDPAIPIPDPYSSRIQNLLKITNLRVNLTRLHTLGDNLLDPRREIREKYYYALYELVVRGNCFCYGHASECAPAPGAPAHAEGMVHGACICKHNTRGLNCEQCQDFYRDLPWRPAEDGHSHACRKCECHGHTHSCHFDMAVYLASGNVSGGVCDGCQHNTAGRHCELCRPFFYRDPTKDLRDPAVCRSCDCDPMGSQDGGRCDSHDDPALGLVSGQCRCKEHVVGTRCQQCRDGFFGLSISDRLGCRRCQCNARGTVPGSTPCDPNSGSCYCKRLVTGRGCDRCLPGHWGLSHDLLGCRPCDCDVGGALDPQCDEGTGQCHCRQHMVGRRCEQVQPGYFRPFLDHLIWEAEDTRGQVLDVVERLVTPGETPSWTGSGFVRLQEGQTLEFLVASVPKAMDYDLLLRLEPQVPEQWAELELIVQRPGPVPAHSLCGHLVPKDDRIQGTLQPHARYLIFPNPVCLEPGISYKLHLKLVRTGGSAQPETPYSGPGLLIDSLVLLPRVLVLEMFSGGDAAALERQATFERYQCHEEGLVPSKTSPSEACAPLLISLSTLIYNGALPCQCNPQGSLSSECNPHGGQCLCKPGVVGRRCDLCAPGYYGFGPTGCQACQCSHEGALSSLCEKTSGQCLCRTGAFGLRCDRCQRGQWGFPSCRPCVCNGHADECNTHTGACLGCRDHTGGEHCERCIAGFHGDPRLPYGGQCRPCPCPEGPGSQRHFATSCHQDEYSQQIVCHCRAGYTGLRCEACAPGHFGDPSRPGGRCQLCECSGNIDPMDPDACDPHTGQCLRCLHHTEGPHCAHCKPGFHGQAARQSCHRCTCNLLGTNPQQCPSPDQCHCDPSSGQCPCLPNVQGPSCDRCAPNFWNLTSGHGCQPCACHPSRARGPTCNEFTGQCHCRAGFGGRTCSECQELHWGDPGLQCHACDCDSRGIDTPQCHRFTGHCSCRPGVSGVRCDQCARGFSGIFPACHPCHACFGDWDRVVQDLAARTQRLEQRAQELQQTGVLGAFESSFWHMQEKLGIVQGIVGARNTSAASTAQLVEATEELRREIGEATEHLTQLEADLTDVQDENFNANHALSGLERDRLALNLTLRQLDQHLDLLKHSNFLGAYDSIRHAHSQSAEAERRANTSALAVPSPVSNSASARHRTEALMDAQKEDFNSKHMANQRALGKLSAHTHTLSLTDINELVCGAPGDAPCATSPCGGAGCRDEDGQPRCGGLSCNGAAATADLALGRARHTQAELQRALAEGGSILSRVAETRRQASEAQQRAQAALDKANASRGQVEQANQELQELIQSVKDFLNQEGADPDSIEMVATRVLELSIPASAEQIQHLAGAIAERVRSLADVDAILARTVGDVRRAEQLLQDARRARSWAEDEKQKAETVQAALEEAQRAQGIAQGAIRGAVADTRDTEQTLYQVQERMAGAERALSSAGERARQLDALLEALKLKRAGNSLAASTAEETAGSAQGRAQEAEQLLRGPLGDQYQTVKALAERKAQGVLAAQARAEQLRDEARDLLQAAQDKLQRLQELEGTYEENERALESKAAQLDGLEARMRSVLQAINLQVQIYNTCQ
# T1 sequence (P11047 34-1609 limits assumed, chain 3 of 3): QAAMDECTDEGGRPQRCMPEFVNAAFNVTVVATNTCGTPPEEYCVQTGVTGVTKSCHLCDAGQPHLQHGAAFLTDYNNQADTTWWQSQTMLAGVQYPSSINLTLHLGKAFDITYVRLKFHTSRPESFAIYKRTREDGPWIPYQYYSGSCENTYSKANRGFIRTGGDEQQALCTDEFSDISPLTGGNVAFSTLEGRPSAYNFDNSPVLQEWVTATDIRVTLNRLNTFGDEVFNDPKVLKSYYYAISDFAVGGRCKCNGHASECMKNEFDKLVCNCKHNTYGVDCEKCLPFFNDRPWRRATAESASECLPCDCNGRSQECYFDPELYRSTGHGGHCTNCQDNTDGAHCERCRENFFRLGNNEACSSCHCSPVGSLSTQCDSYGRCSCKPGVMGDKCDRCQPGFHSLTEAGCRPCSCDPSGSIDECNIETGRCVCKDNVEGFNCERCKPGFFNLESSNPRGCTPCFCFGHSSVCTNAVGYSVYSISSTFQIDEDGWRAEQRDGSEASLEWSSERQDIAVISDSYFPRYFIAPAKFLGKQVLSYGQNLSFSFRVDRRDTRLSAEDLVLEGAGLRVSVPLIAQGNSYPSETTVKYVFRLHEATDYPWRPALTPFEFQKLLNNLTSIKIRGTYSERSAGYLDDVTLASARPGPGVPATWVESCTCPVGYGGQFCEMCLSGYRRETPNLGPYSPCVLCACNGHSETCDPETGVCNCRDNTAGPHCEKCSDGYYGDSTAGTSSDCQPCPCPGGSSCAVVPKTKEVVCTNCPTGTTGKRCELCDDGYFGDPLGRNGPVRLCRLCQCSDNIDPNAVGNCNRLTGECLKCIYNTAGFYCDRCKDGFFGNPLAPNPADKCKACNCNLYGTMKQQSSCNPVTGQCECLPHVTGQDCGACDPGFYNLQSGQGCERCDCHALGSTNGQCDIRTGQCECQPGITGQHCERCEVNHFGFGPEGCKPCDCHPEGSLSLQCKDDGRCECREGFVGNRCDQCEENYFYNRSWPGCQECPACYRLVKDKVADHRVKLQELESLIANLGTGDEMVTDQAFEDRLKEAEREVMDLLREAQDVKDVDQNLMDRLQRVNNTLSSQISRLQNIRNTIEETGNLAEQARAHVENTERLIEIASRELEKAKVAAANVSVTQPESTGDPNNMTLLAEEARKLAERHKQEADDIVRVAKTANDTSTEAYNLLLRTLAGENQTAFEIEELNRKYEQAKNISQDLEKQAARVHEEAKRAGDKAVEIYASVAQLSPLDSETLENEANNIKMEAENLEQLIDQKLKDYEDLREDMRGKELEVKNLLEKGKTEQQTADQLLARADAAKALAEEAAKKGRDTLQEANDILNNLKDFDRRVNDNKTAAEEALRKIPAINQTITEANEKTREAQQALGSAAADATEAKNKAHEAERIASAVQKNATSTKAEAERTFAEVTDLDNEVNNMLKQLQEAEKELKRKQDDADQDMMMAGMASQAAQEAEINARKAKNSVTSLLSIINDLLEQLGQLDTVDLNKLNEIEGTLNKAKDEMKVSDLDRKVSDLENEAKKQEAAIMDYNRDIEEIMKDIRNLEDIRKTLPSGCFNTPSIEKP
# test: ELISA, GF coated, laminin 10 nM
metric: binding result

What value of binding result has been reported for the following binder? brain-derived neurotrophic factor (BDNF) (ligand, UniProt P23560 129-247, looked up, mature; Purchased in mature form) HSDPARRGELSVCDSISEWVTAADKKTAVDMSGGTVTVLEKVPVSKGQLKQYFYETKCNPMGYTKEGCRGIDKRHWNSQCRTTQSYVRALTMDSKKRIGWRFIRIDTSCVCTLTIKRGR
binds

Would you mind telling me what binding result value was observed for fibroblast growth factor (FGF)-7 (ligand, UniProt P21781 32-194, looked up, mature; Purchased in mature form) CNDMTPEQMATNVNCSSPERHTRSYDYMEGGDIRVRRLFCRTQWYLRIDKRGKVKGTQEMKNNYNIMEIRTVAVGIVAIKGVESEFYLAMNKEGKLYAKKECNEDCNFKELILENHYNTYASAKWTHNGGEMFVALNQKGIPVRGKKTKKEQKTAHFLPMAIT ?
binds
